System: P388 leukemia ip, CD2F1 mice, survival T/C
assay.info: NCI In Vivo Anticancer Drug Screen. Data for tumor model P388 Leukemia (intraperitoneal) in CD2F1 (CDF1) mice
measurement.setup: endpoint: median survival time; dose: 12.5 mg/kg/injection; schedule: Q01DX009 (ip); vehicle: water
Toxic doses and inconclusive results are not listed. The calls were made as follows: active = survival T/C of 150% or more; inactive = T/C below 125% in these data.
# output must be one of True for active, False for inactive

Some entries whose results are on file:
1. Cc1cccc(-c2cc3cccnc3nc2NN=O)c1C    False
2. CN(C)CC(O)Cn1ccnc1[N+](=O)[O-] (stereo unspecified)    False
3. O=NNc1cncc(Sc2ccccc2)n1    False
4. O=[N+]([O-])c1ccc(-c2csc(=[N+]3CCCCC3)s2)cc1    False
5. O=c1cc[nH]c(=O)o1    False

We now examine a further compound.
input: Which result was noted for this compound in the test: O=NNc1ccc(Br)cn1
output: True

====

System: P388 leukemia ip, CD2F1 mice, survival T/C
assay.info: NCI In Vivo Anticancer Drug Screen. Data for tumor model P388 Leukemia (intraperitoneal) in CD2F1 (CDF1) mice
measurement.setup: endpoint: median survival time; dose: 50.0 mg/kg/injection; schedule: Q01DX009 (ip); vehicle: saline with Tween-80; higher = longer survival
Toxic doses and inconclusive results are not listed.
Entries and their measured T/C follow.

1. COc1ccc(C2OC23Cc2ccccc2C3=O)cc1OC (configuration not stated)    109 % of control

input: # assay system P388 leukemia ip, CD2F1 mice, survival T/C: give T/C of CC(C)(C)NC=C(C#N)C#N
output: 86 % of control

input: Lab note: P388 leukemia ip, CD2F1 mice, survival T/C assay, enter T/C for Cc1cc(O)c(C=O)c2c1C(=O)Oc1c(CO)c(O)c3c(c1O2)C(O)OC3=O (configuration not stated) here
output: 124 % of control

input: Print P388 leukemia ip, CD2F1 mice, survival T/C T/C for Nc1c(Cl)c(Cl)nc(C(=O)O)c1Cl .
output: 100 % of control

input: Look up P388 leukemia ip, CD2F1 mice, survival T/C data: T/C of CC(=O)OC1=C2OC(=O)C3(C2C=CC=C1)C1C=CC=CC13 (configuration not stated) , then report it.
output: 97 % of control

input: Output reported T/C of the compound C=C(CC(=O)Nc1nc(C)c(C(=O)OC)s1)C(=O)O on P388 leukemia ip, CD2F1 mice, survival T/C.
output: 105 % of control

input: Retrieve T/C on P388 leukemia ip, CD2F1 mice, survival T/C; query CCOC(=O)CC(SP(=S)(OC)OC)C(=O)OCC (configuration not stated)
output: 103 % of control

input: State measured T/C of the compound Cc1cc(O)c(C(c2ccncc2)c2c(O)cc(C)[nH]c2=O)c(=O)[nH]1 with P388 leukemia ip, CD2F1 mice, survival T/C.
output: 102 % of control

input: Find the measured T/C of O=C1C2CCC(C2)C1C(O)(C(F)(F)F)C(F)(F)F (configuration not stated) with P388 leukemia ip, CD2F1 mice, survival T/C as test system.
output: 100 % of control

input: // output T/C; input CCOC=C1C(=O)N(C)C(=O)N(C)C1=O ; system P388 leukemia ip, CD2F1 mice, survival T/C
output: 106 % of control

input: Specify the recorded T/C for O=C(CN1CCCCC1)Nc1cccc(Cl)c1 , system: P388 leukemia ip, CD2F1 mice, survival T/C.
output: 100 % of control

input: Provide T/C, recorded with P388 leukemia ip, CD2F1 mice, survival T/C, of C=CCOc1ccncc1
output: 90 % of control

====

This listing pairs compounds with measured T/C.
Tested on: P388 leukemia ip, CD2F1 mice, survival T/C
assay.info: NCI In Vivo Anticancer Drug Screen. Data for tumor model P388 Leukemia (intraperitoneal) in CD2F1 (CDF1) mice
measurement.setup: endpoint: median survival time; dose: 100.0 mg/kg/injection; schedule: Q04DX003 (ip); vehicle: saline with Tween-80; higher = longer survival
Toxic doses and inconclusive results are not listed.

1) Cc1[nH]cc2c1C(c1ccccc1F)=NCC(=O)N2    101 % of control
2) Clc1ccc(C(c2ccccc2)N2CCNCC2)cc1 (stereo not given)    102 % of control
3) COC(=O)c1ccccc1N=NNc1ccccc1C(N)=O    90 % of control

input: Please tell me the measured T/C for O=C(Nc1ccccc1)c1cc(Cl)ccc1O ; system: P388 leukemia ip, CD2F1 mice, survival T/C.
output: 100 % of control

input: // fetch T/C; item: O=C1NCNC(=O)N1 ; system: P388 leukemia ip, CD2F1 mice, survival T/C
output: 98 % of control

input: Quote T/C with test system P388 leukemia ip, CD2F1 mice, survival T/C for O=C(/C=C\c1ccc(NCc2ccc(C(=O)O)cc2)cc1)CCl
output: 109 % of control

input: Enter recorded T/C with P388 leukemia ip, CD2F1 mice, survival T/C for Cc1cc([N+](=O)[O-])c(Cl)cc1NS(=O)(=O)c1ccccc1 here.
output: 95 % of control

====

System: P388 leukemia ip, CD2F1 mice, survival T/C
assay.info: NCI In Vivo Anticancer Drug Screen. Data for tumor model P388 Leukemia (intraperitoneal) in CD2F1 (CDF1) mice
measurement.setup: endpoint: median survival time; dose: 100.0 mg/kg/injection; schedule: Q01DX009 (ip); vehicle: saline with Tween-80; higher = longer survival
Description: The antitumor activity of compounds was measured in mice bearing transplantable tumors. Survival or tumor size were measured and the results are expressed as the measurement made in the treated group (T) divided by the measurement made in the vehicle treated control group (C). The tumor model used in this assay is P388 Leukemia (intraperitoneal) in CD2F1 (CDF1) mice
Toxic doses and inconclusive results are not listed.
# T/C per record follows

Example entries begin here.
1. CC(=O)OC1OC(C(OC(C)=O)C(Cl)Cl)OC1C(Cl)Cl (stereo unspecified)    105 % of control
2. Cc1cccc(C(=O)N(C)C(c2ccco2)P(=O)(c2ccccc2)c2ccccc2)c1 (stereo unspecified)    101 % of control
3. NC(C(=O)O)C(=O)c1ccccc1 (stereo unspecified)    100 % of control
4. O=C(/C=C/c1ccccc1)N1CCCCC1    90 % of control
5. O=[n+]1c2c(n([O-])c3cc(Cl)c(Cl)cc31)CCCCC2    99 % of control

Now let's try a different one.
input: Tell us which T/C value is on record for CCOC(C)(c1ccc(Cl)cc1)C1CCNCC1 (stereo unspecified)
output: 119 % of control

====

Tested on: P388 leukemia ip, CD2F1 mice, survival T/C
assay.info: NCI In Vivo Anticancer Drug Screen. Data for tumor model P388 Leukemia (intraperitoneal) in CD2F1 (CDF1) mice
measurement.setup: endpoint: median survival time; dose: 240.0 mg/kg/injection; schedule: Q01DX005 (ip); vehicle: saline with Tween-80; higher = longer survival
Inconclusive results and toxic doses are left out.
value.type: T/C

Look over these answered cases.
1. COc1ccc(NC(=O)CCC(=O)C(C)C(=O)c2ccccc2)cc1 (centres undefined)    120 % of control
2. CCOC(=O)C1=C(C(=O)c2ccc(C)cc2)C(c2cccc([N+](=O)[O-])c2)C(C(=O)c2ccc(C)cc2)=C(C(=O)OCC)N1    111 % of control
3. CC(C)(C)OOC(=O)C1CCCCC1    92 % of control

// moving on: another record for T/C
input: // Input: CSc1nc(NC2OCC(OC(C)=O)C(OC(C)=O)C2OC(C)=O)c(N=CC=Nc2c(NC3OCC(OC(C)=O)C(OC(C)=O)C3OC(C)=O)nc(SC)[nH]c2=O)c(=O)[nH]1 (centres undefined) . Output its T/C only.
output: 89 % of control

====

Quick list: T/C per entry.
System: P388 leukemia ip, CD2F1 mice, survival T/C
assay.info: NCI In Vivo Anticancer Drug Screen. Data for tumor model P388 Leukemia (intraperitoneal) in CD2F1 (CDF1) mice
measurement.setup: endpoint: median survival time; dose: 50.0 mg/kg/injection; schedule: Q01DX009 (ip); vehicle: saline; higher = longer survival
Inconclusive results and toxic doses are left out.

A selection of reference data follows.
1. Cc1[nH]n(-c2ccc(Cl)cc2)c(=O)c1N=Nc1cccc(C(F)(F)F)c1    88 % of control
2. O=C(O)C1CCCN1 (stereo not drawn)    98 % of control
3. CCCCCC(CN(C)C)C(=O)/C=C/c1ccccc1 (stereo not drawn)    104 % of control
4. C1COCCN2CCOCCOCCN(CCO1)CCOCC2    109 % of control
5. CCCCCCCCCCCC(=O)NC(=S)Nc1ccccc1C(=O)OC    99 % of control

input: Give the measured T/C for CCOC(=O)NCC(C)(c1ccccc1)c1ccccc1
output: 87 % of control

input: Supply reported T/C belonging to this compound: COC(=N)CCSSCCC(=N)OC
output: 105 % of control

input: Tell me measured T/C for COc1ccc(CSC(=S)Nc2ccc(Cl)cc2Cl)cc1 please.
output: 106 % of control
